tested_on: mMC4R (Mus musculus)
Sequence (P56450 whole entry): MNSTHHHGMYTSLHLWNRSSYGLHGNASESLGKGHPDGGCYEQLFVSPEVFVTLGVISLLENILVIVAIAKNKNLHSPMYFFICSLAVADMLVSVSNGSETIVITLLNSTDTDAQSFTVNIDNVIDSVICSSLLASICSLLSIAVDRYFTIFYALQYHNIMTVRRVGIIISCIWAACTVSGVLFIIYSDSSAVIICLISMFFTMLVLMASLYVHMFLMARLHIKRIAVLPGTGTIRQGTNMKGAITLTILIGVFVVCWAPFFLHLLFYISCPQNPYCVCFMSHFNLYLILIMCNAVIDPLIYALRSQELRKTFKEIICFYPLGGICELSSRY
Format: cell-based
condition_label: compared to 6
Where a SMILES comes first, the peptide text is derived from it. [ ]: non-standard residue; d: D form. Bip = N[C@@H](Cc1ccc(-c2ccccc2)cc1)C(=O)O
Please go through the items and note down their fold decreased antagonist potency at the mMC4R compared to 6.
Please reply with the bare figure in fold and do not write the unit itself.

Request: # query: fold decreased antagonist potency at the mMC4R compared to 6 of entry C[C@@H]1NC(=O)[C@H](CC(N)=O)NC(=O)[C@H](c2ccccc2)NC(=O)[C@H](Cc2ccccc2)NC(=O)[C@H](CCCNC(=N)N)NC(=O)[C@@H]2CCCN2C(=O)[C@H]2CCCN2C(=O)[C@H](Cc2ccccc2)NC1=O [Peptide 16, c[Pro-Arg-Phe-Phg-Asn-Ala-Phe-DPro]]
Response: 65

Request: Query C[C@@H]1NC(=O)[C@H](CC(N)=O)NC(=O)[C@H](Cc2ccccc2)NC(=O)[C@H](Cc2ccc(-c3ccccc3)cc2)NC(=O)[C@H](CCCNC(=N)N)NC(=O)[C@@H]2CCCN2C(=O)[C@H]2CCCN2C(=O)[C@H](Cc2ccccc2)NC1=O [Peptide 7, c[Pro-Arg-Bip-Phe-Asn-Ala-Phe-DPro]] (cyclo(R[Bip]FNAF[dP]P)) next
Response: 8

Request: Query C[C@@H]1NC(=O)[C@H](CC(N)=O)NC(=O)[C@H](Cc2ccccc2)NC(=O)[C@H](Cc2ccc3ccccc3c2)NC(=O)[C@H](CCCNC(=N)N)NC(=O)[C@@H]2CCCN2C(=O)[C@H]2CCCN2C(=O)[C@H](Cc2ccccc2)NC1=O [Peptide 13, c [Pro-Arg-Nal(2′)-Phe-Asn-Ala-Phe-DPro]] next
Response: 5

Request: Query C[C@@H]1NC(=O)[C@H](CC(N)=O)NC(=O)[C@H](Cc2ccccc2)NC(=O)[C@H](CCc2ccccc2)NC(=O)[C@H](CCCNC(=N)N)NC(=O)[C@@H]2CCCN2C(=O)[C@H]2CCCN2C(=O)[C@H](Cc2ccccc2)NC1=O [Peptide 10, c[Pro-Arg-hPhe-Phe-Asn-Ala-Phe-DPro]] next
Response: 5

Request: Query C[C@@H]1NC(=O)[C@H](CC(N)=O)NC(=O)[C@H](Cc2ccc(-c3ccccc3)cc2)NC(=O)[C@H](Cc2ccccc2)NC(=O)[C@H](CCCNC(=N)N)NC(=O)[C@@H]2CCCN2C(=O)[C@H]2CCCN2C(=O)[C@H](Cc2ccccc2)NC1=O [Peptide 14, c[Pro-Arg-Phe-Bip-Asn-Ala-Phe-DPro]] next
Response: 8
